FYI, the data here is from ChEMBL document CHEMBL2021759.

Test: Apparent oral clearance in Sprague-Dawley rat at 20 umol/kg, po
Type: ADME, organism-based
Settings: in vivo
readout_kind: CL/F (mL/min/kg)
Could you give me the number in mL/min/kg? Just the number is fine.

Query: Which value of CL/F has been reported for C[C@H]1[C@H](n2ccc(N)nc2=O)O[C@@](CO)(N=[N+]=[N-])[C@H]1O in the records?
Result: 119

* * *

Test system: Rattus norvegicus
Assay: Oral bioavailability in Sprague-Dawley rat assessed as 4'-azido-2'-deoxy-2'-methylcytidine level at 20 umol/kg
Type: ADME, organism-based
Conditions: in vivo
Item-by-item account of F
The response must be a number in % with no trailing unit.

{"smiles_entry": "CC(C)[C@H](N)C(=O)OC[C@@]1(N=[N+]=[N-])O[C@@H](n2ccc(N)nc2=O)[C@H](C)[C@@H]1O.O=C(O)C(F)(F)F", "readout_kind": "F", "units_symbol": "%", "recorded_result": 8}
{"smiles_entry": "CC(C)[C@H](N)C(=O)O[C@H]1[C@@H](C)[C@H](n2ccc(N)nc2=O)O[C@@]1(CO)N=[N+]=[N-].O=C(O)C(F)(F)F", "readout_kind": "F", "units_symbol": "%", "recorded_result": 20}
{"smiles_entry": "CC(C)[C@H](N)C(=O)OC[C@@]1(N=[N+]=[N-])O[C@@H](n2ccc(N)nc2=O)[C@H](C)[C@@H]1OC(=O)[C@@H](N)C(C)C.O=C(O)C(F)(F)F", "readout_kind": "F", "units_symbol": "%", "recorded_result": 7}

Next compound, please.
Query: Would you kindly share the measured F for CC(C)C(=O)OC[C@@]1(N=[N+]=[N-])O[C@@H](n2ccc(N)nc2=O)[C@H](C)[C@@H]1OC(=O)C(C)C ?
Result: 65
